Target: High affinity choline transporter 1 (Homo sapiens) (UniProt Q9GZV3)
Sequence (Q9GZV3 whole entry, looked up): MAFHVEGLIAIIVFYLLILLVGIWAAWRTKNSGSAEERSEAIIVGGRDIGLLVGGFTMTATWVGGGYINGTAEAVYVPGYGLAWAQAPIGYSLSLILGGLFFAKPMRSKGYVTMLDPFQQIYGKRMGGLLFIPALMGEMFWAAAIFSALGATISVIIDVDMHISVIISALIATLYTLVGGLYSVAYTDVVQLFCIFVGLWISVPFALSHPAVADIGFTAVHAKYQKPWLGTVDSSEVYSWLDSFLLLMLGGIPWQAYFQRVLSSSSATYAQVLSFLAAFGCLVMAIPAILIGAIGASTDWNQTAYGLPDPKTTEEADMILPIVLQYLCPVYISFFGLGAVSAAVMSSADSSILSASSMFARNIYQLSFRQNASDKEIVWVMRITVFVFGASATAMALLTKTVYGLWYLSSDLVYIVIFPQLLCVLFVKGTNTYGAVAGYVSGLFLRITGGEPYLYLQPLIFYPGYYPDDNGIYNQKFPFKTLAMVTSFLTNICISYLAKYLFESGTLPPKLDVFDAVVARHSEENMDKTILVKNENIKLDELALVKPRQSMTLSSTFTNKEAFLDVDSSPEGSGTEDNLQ
Test: CHT positive allosteric modulators, primary screen, cell-based, membrane potential dye, choline EC20 (AID 488977)
Conditions: CHT-expressing cells, at 10 µM, LV-AA mutant CHT in HEK293 cells
Hit rate of the full screen: of about 310,000 compounds, about 1,500 (0.48%) were called active.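 Rule for the calls: active = initial fluorescence not abnormally high and integrated response B-score, plate-corrected, over 3 SD above library mean; inactive = the rest.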 Many of the other results were omitted from the sample, so actives are more common in it than they were.
Please state which outcome applies, choosing from 1 = active, -1 = inactive

Study these solved cases before continuing.
State the result this test recorded for CN1CCN(c2nc(Nc3ccc(O)cc3)nc3ccccc23)CC1 .
1

State the result this test recorded for CCN(CC(=O)Nc1cccc(S(=O)(=O)N2CCCCC2)c1)Cc1ccccc1 .
-1

Now examine the next entry.
State the result this test recorded for CCCCCCn1cc(C(=O)O)c(=O)c2cc(F)c(N3CCCCC3)cc21 .
-1

* * *

Molecular target: High affinity choline transporter 1 (Homo sapiens) (UniProt Q9GZV3)
Assay: CHT positive allosteric modulators, primary screen, cell-based, membrane potential dye, choline EC20 (AID 488977)
Conditions: CHT-expressing cells, at 10 µM, LV-AA mutant CHT in HEK293 cells
In all, about 310,000 compounds went through this assay and about 1,500 (0.48%) were called active.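 Rule for the calls: active = initial fluorescence not abnormally high and integrated response B-score, plate-corrected, over 3 SD above library mean; inactive = the rest.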 Shown is part of a subset that was picked to be rich in actives.
Please state which outcome applies, choosing from TRUE (active), FALSE (inactive)

State the result this test recorded for Cc1nc(N=C(N)N)nc2c(C)cccc12 .
TRUE

State the result this test recorded for COC(=O)c1cc(OC)c(OC)cc1NC(=O)C1CCCO1 (centres undefined) .
FALSE

State the result this test recorded for Cn1c(=NC(=O)c2ccco2)sc2cccc(F)c21 .
FALSE

State the result this test recorded for c1ccc(C2c3[nH]c4ccccc4c3CCN2Cc2cccn2-c2cccnc2)nc1 (centres undefined) .
FALSE

State the result this test recorded for O=C(Nc1ccc2nc3n(c(=O)c2c1)CCCC3)c1ccc(Cl)nc1 .
FALSE

State the result this test recorded for CC(=O)Nc1ccc(C(=O)Nc2cccc(S(=O)(=O)NC3=NCCC3)c2)cc1 .
FALSE

Further cases:
State the result this test recorded for Cn1c(=NC(=O)c2cnccn2)sc2ccccc21 .
TRUE

State the result this test recorded for CCOc1ccc(C2c3[nH]c4ccccc4c3CCN2Cc2cn(CC)nc2C)cc1 (centres undefined) .
FALSE

State the result this test recorded for CC(=O)Oc1ccc(-c2nc3c(C)cccc3c(=O)o2)cc1 .
FALSE

State the result this test recorded for Cc1c(CCOC(=O)CC23CC4CC(CC(C)(C4)C2)C3)sc[n+]1Cc1ccc([N+](=O)[O-])cc1 .
TRUE

* * *

Target: High affinity choline transporter 1 (Homo sapiens) (UniProt Q9GZV3)
Test: CHT positive allosteric modulators, primary screen, cell-based, membrane potential dye, choline EC20 (AID 488977)
Details: CHT-expressing cells, at 10 µM, LV-AA mutant CHT in HEK293 cells
Screen size: about 310,000 compounds; about 1,500 (0.48%) were called active.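 How the source made its calls: active means initial fluorescence not abnormally high and integrated response B-score, plate-corrected, over 3 SD above library mean; inactive means the rest.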 The sample as a whole holds a higher share of actives than the screen did.
Please state which outcome applies, choosing from Yes = active, No = inactive

State the result this test recorded for O=C(NCCCc1ccccc1)C(=O)NCC1OCCN1S(=O)(=O)c1ccccc1 (stereo not given) .
No

State the result this test recorded for O=C1CCCCC1Sc1ccc(Cl)cc1[N+](=O)[O-] (stereo not given) .
No

State the result this test recorded for CN1C(C(=O)NCc2ccco2)CC2Cn3c(nc4ccccc43)C21 (stereo not given) .
No

State the result this test recorded for Cc1onc(-c2ccccc2Cl)c1C(=O)OCc1nnc(-c2ccccc2)o1 .
No
